- Experimental protocol: Volume of distribution in Nu/Nu rat at 3 mg/kg, iv administered using TPPW as vehicle
- Assay type: ADME, organism-based
- Parameters: dose 3 mg/kg, route intravenous
- Conditions used: in vivo
Observation type: Vd (L/kg)
Numbers only; they are read as L/kg.

query: Give the measured Vd for Cc1cc(Nc2nc(Sc3ccc(NC(=O)CN4CC[C@@H](C(=O)NC5CCCC5)C4)cc3)nn3cccc23)n[nH]1
result: 1

====

Catalogue of IC50 readings, one per entry.
- Tested on: HCT-116
- Experimental protocol: Antiproliferative activity against human HCT116 cells after 72 hrs by BrdU-based ELISA
- Format: functional, cell-based
- Conditions used: HCT-116, 72 h

query: Give the measured IC50 for Cc1cc(Nc2nc(Sc3ccc(NC(=O)CN4CC[C@@H](OCCCN5CCOCC5)C4)cc3)nn3cccc23)n[nH]1
result: 10.8 nM

query: Give the measured IC50 for Cc1cc(Nc2nc(Sc3ccc(NC(=O)CN4CC[C@@H](C(=O)N5CCC(F)(F)C5)C4)cc3)nn3cccc23)n[nH]1
result: 1.2 nM

query: Give the measured IC50 for COCCO[C@@H]1CCN(CC(=O)Nc2ccc(Sc3nc(Nc4cc(C)[nH]n4)c4cccn4n3)cc2)C1
result: 3.1 nM

query: Give the measured IC50 for Cc1cc(Nc2nc(Sc3ccc(NC(=O)CN4CC[C@@H](C(=O)NC(C)(C)C)C4)cc3)nn3cccc23)n[nH]1
result: 1 nM

====

- Target: Aurora kinase B (Homo sapiens, UniProt Q96GD4)
- Sequence (Q96GD4 whole entry): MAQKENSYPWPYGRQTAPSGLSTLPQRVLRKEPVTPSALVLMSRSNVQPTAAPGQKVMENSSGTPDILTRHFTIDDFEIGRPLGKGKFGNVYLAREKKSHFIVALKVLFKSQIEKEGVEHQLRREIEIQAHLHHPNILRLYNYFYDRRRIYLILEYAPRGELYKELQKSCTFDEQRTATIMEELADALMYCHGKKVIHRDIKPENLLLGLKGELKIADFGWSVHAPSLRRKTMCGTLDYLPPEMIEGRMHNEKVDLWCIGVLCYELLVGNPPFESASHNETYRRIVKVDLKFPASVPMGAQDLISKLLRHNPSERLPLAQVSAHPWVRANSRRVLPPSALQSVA
- Experimental protocol: Inhibition of Aurora kinase B-mediated histone H3 Ser10 phosphorylation in human HCT116 cells after 2 hrs by sandwich ELISA
Binarize IC50 at 7 nM; below is Satisfied, at or above is Not satisfied.

Examples from the recorded data:
Compound	Assigned category
Cc1cc(Nc2nc(Sc3ccc(NC(=O)CN4CC[C@@H](C(=O)Nc5ccc(F)cc5)C4)cc3)nn3cccc23)n[nH]1	Not satisfied
Cc1cc(Nc2nc(Sc3ccc(NC(=O)CN4CC[C@@H](C(=O)N5CCC(F)(F)C5)C4)cc3)nn3cccc23)n[nH]1	Satisfied
Cc1cc(Nc2nc(Sc3ccc(NC(=O)CN4CC[C@H](C(=O)N5CCCC5)C4)cc3)nn3cccc23)n[nH]1	Not satisfied
Cc1cc(Nc2nc(Sc3ccc(NC(=O)CN4CCC(C(=O)C(C)(C)C)C4)cc3)nn3cccc23)n[nH]1 (racemic)	Not satisfied
Cc1cc(Nc2nc(Sc3ccc(NC(=O)CN4CC[C@@H](OCCCN5CCOCC5)C4)cc3)nn3cccc23)n[nH]1	Not satisfied

query: Could you please tell me whether IC50 recorded for Cc1cc(Nc2nc(Sc3ccc(NC(=O)CN4CC[C@@H](C(=O)N5CCCC5)C4)cc3)nn3cccc23)n[nH]1 is less than 7 nM?
result: Satisfied

query: Could you please tell me whether IC50 recorded for Cc1cc(Nc2nc(Sc3ccc(NC(=O)CN4CC[C@@H](OCCN5CCOCC5)C4)cc3)nn3cccc23)n[nH]1 is less than 7 nM?
result: Not satisfied

query: Could you please tell me whether IC50 recorded for Cc1cc(Nc2nc(Sc3ccc(NC(=O)CN4CCC(C(=O)N5CCCC5)C4)cc3)nn3cccc23)n[nH]1 (racemic) is less than 7 nM?
result: Not satisfied

query: Could you please tell me whether IC50 recorded for Cc1cc(Nc2nc(Sc3ccc(NC(=O)CN4CC[C@@H](C(=O)NC(C)(C)C)C4)cc3)nn3cccc23)n[nH]1 is less than 7 nM?
result: Satisfied

query: Could you please tell me whether IC50 recorded for Cc1cc(Nc2nc(Sc3ccc(NC(=O)CN4CC[C@@H](O)C4)cc3)nn3cccc23)n[nH]1 is less than 7 nM?
result: Not satisfied

query: Could you please tell me whether IC50 recorded for Cc1cc(Nc2nc(Sc3ccc(NC(=O)CN4CC[C@@H](C(=O)N5CCC(O)CC5)C4)cc3)nn3cccc23)n[nH]1 is less than 7 nM?
result: Not satisfied

====

- Experimental protocol: Clearance in Sprague-Dawley rat at 1 mg/kg, iv administered using PEG400/water as vehicle
- Type: ADME, organism-based
- Parameters: dose 1 mg/kg, route intravenous
- Conditions used: in vivo
Binarize clearance at 40 mL/min/kg; below is t, at or above is f.

Structure smiles string	Assigned category
Cc1cc(Nc2nc(Sc3ccc(NC(=O)CN4CC[C@@H](C(=O)NCC(F)(F)F)C4)cc3)nn3cccc23)n[nH]1	t
Cc1cc(Nc2nc(Sc3ccc(NC(=O)CN4CC[C@@H](C(=O)NC(C)(C)C)C4)cc3)nn3cccc23)n[nH]1	f
COCCO[C@@H]1CCN(CC(=O)Nc2ccc(Sc3nc(Nc4cc(C)[nH]n4)c4cccn4n3)cc2)C1	f
Cc1cc(Nc2nc(Sc3ccc(NC(=O)CN4CC[C@@H](C(=O)NC5CCCC5)C4)cc3)nn3cccc23)n[nH]1	t

query: Could you please tell me whether clearance recorded for Cc1cc(Nc2nc(Sc3ccc(NC(=O)CN4CC[C@@H](C(=O)N5CCC(F)(F)C5)C4)cc3)nn3cccc23)n[nH]1 is less than 40 mL/min/kg?
result: t

====

- Experimental protocol: Half life in Nu/Nu rat at 30 mg/kg, iv administered using TPPW as vehicle
- Assay type: ADME, organism-based
- Parameters: dose 30 mg/kg, route intravenous
- Conditions used: in vivo
Observation type: half-life

query: Give the measured half-life for Cc1cc(Nc2nc(Sc3ccc(NC(=O)CN4CC[C@@H](C(=O)NC5CCCC5)C4)cc3)nn3cccc23)n[nH]1
result: 3.4 h

====

- Experimental protocol: AUC (0 to infinity) in Sprague-Dawley rat at 1 mg/kg, iv administered using PEG400/water as vehicle
- Format: ADME, organism-based
- Parameters: time infinity, dose 1 mg/kg, route intravenous
- Conditions used: plasma
Observation type: AUC(0-inf) (µM·h)
Numbers only; they are read as µM·h.

Structure smiles string	AUC(0-inf), µM·h
Cc1cc(Nc2nc(Sc3ccc(NC(=O)CN4CC[C@@H](C(=O)NC5CCCC5)C4)cc3)nn3cccc23)n[nH]1	1.8

Then this compound:
query: Give the measured AUC(0-inf) for Cc1cc(Nc2nc(Sc3ccc(NC(=O)CN4CC[C@@H](C(=O)N5CCC(F)(F)C5)C4)cc3)nn3cccc23)n[nH]1
result: 1.4

====

- Experimental protocol: AUC (0 to infinity) in Nu/Nu rat at 10 mg/kg, iv administered using TPPW as vehicle
- Format: ADME, organism-based
- Set-up: time infinity, dose 10 mg/kg, route intravenous
- Conditions used: plasma
Observation type: AUC(0-inf) (µM·h)
Numbers only; they are read as µM·h.

query: Give the measured AUC(0-inf) for Cc1cc(Nc2nc(Sc3ccc(NC(=O)CN4CC[C@@H](C(=O)NC5CCCC5)C4)cc3)nn3cccc23)n[nH]1
result: 14.6

====

- Experimental protocol: Volume of distribution in Nu/Nu rat at 30 mg/kg, iv administered using TPPW as vehicle
- Assay type: ADME, organism-based
- Design: dose 30 mg/kg, route intravenous
- Conditions used: in vivo
Observation type: Vd (L/kg)
Numbers only; they are read as L/kg.

query: Give the measured Vd for Cc1cc(Nc2nc(Sc3ccc(NC(=O)CN4CC[C@@H](C(=O)NC5CCCC5)C4)cc3)nn3cccc23)n[nH]1
result: 0.84

====

- Experimental protocol: Volume of distribution in Nu/Nu rat at 50 mg/kg, iv administered using TPPW as vehicle
- Type: ADME, organism-based
- Set-up: dose 50 mg/kg, route intravenous
- Conditions used: in vivo
Observation type: Vd (L/kg)
Numbers only; they are read as L/kg.

query: Give the measured Vd for Cc1cc(Nc2nc(Sc3ccc(NC(=O)CN4CC[C@@H](C(=O)N5CCC(F)(F)C5)C4)cc3)nn3cccc23)n[nH]1
result: 0.62

====

- Experimental protocol: AUC (0 to infinity) in Nu/Nu rat at 15 mg/kg, iv administered using TPPW as vehicle
- Type: ADME, organism-based
- Parameters: dose 15 mg/kg, route intravenous, time infinity
- Conditions used: plasma
Observation type: AUC(0-inf) (µM·h)
Numbers only; they are read as µM·h.

query: Give the measured AUC(0-inf) for Cc1cc(Nc2nc(Sc3ccc(NC(=O)CN4CC[C@@H](C(=O)N5CCC(F)(F)C5)C4)cc3)nn3cccc23)n[nH]1
result: 34.4

====

These compounds were tested on Aurora kinase B (Homo sapiens, UniProt Q96GD4); Kd is the recorded read-out.
Kindly format the answer as number then unit.

Compound	Result
Cc1cc(Nc2nc(Sc3ccc(NC(=O)CN4CC[C@@H](OCCN5CCN(C)CC5)C4)cc3)nn3cccc23)n[nH]1	2.9 nM
Cc1cc(Nc2nc(Sc3ccc(NC(=O)CN4CCC(C(=O)C(C)(C)C)C4)cc3)nn3cccc23)n[nH]1 (racemic)	6.1 nM
Cc1cc(Nc2nc(Sc3ccc(NC(=O)CN4CC[C@H](C(=O)N5CCCC5)C4)cc3)nn3cccc23)n[nH]1	1.9 nM
Cc1cc(Nc2nc(Sc3ccc(NC(=O)CN4CC[C@@H](C(=O)NC5CCC5)C4)cc3)nn3cccc23)n[nH]1	3.3 nM
COCCO[C@@H]1CCN(CC(=O)Nc2ccc(Sc3nc(Nc4cc(C)[nH]n4)c4cccn4n3)cc2)C1	3.1 nM

query: Give the measured Kd for Cc1cc(Nc2nc(Sc3ccc(NC(=O)CN4CC[C@@H](C(=O)N5CCC(F)(F)C5)C4)cc3)nn3cccc23)n[nH]1
result: 1.7 nM

query: Give the measured Kd for Cc1cc(Nc2nc(Sc3ccc(NC(=O)CN4CC[C@@H](O)C4)cc3)nn3cccc23)n[nH]1
result: 6.6 nM

query: Give the measured Kd for Cc1cc(Nc2nc(Sc3ccc(NC(=O)CN4CC[C@@H](OCCO)C4)cc3)nn3cccc23)n[nH]1
result: 1.7 nM
